Test: Kinetic solubility in FaSSIF and FeSSIF
Type: physicochemical
Details: FaSSIF (fasted state simulated intestinal fluid), fassif, thermodynamic from solid, FaSSIF, equilibration 4 h, HPLC; read-out: Solubility (mg/mL) FaSSIF
Recorded Endpoint: solubility at 4 h (mg/mL)
Number in mg/mL, nothing else.

Challenge: Entry Cl.c1ccc2cc([C@]34CNC[C@H]3C4)ccc2c1 [Form CS1] has what solubility at 4 h?
Response given: 75.3

The origin of these recorded values is patent US11149004B2.
